- ASSAY: Selectivity index, ratio of LD50 for human HepG2 cells to MIC90 for replicating form of Mycobacterium tuberculosis mc'2 6220
- Assay type: toxicity, cell-based
- RUN PARAMETERS: read-out: Selectivity Index
selectivity ratio overview

Below, 3 compounds whose answers are already recorded.
[
  {
    "COMPOUND": "CCCc1cc(=O)oc2c3c(cc(OCCN4CCOCC4)c12)O[C@H]([N+](=O)[O-])[C@H]3C(C)C (racemic)",
    "READOUT KIND": "selectivity ratio",
    "RESULT": "> 1"
  },
  {
    "COMPOUND": "CC1(C)C=Cc2c(c3c(CN4CCOCC4)cc(=O)oc3c3cc([N+](=O)[O-])oc23)O1",
    "READOUT KIND": "selectivity ratio",
    "RESULT": "> 5"
  },
  {
    "COMPOUND": "O=[N+]([O-])C1Cc2ccccc2O1 (stereo not given)",
    "READOUT KIND": "selectivity ratio",
    "RESULT": 6
  }
]

Param item = Cc1c(F)c(=O)oc2c3c(c4c(c12)OC(C)(C)CC4)O[C@H]([N+](=O)[O-])[C@H]3O (relative stereo) ; retrieve measured selectivity ratio. > 128

What about CCCc1cc(=O)oc2c3c(c4c(c12)OC(C)(C)C=C4)O[C@H]([N+](=O)[O-])[C@H]3O (relative stereo) ? > 11
